Source: PubChem BioAssay (NCI)

- methodNotes: NCI Yeast Anticancer Drug Screen. Data for the cln2 rad14 strain (AID 165)
- measurementContext: S. cerevisiae cln2 rad14 strain, at 50.0 µM, hits give high values
The panel holds about 79,000 compounds, 15% with a hit somewhere; the sample as a whole holds those more often.
Would you mind labelling by growth inhibition? At or over 60% is Y, under is N.

Answered examples (4):
{"columns": ["compound", "answerLabel"],
 "data": [
  ["CCN1C2=NC(=O)N(C)C(=O)C2(Cl)C(C(SC)S(=O)(=O)c2ccc(C)cc2)c2ccccc21 (stereo not drawn)", "Y"],
  ["Cc1cc(N(CCOS(C)(=O)=O)CCOS(C)(=O)=O)ccc1C=Nc1ccc(-c2csc(-c3ccc(Br)cc3)n2)cc1", "Y"],
  ["Clc1ccc(CN2COc3c(cc(Cl)c4cccnc34)C2)cc1Cl", "N"],
  ["c1ccc2nc3ccccc3nc2c1", "N"]
]}

Could you now look at the following compound, please?
Is the recorded value of growth inhibition equal to or greater than 60% for this compound? `C=C(c1ccc2nc(NC(=O)OC)[nH]c2c1)c1cccs1` N
